Data provenance: PubChem BioAssay AID1159580

- ASSAY OVERVIEW: chemical genetic growth profiling, strain panel (AID 1159580);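 also: tested at 20 µM; growth read once vehicle control cultures reached saturation at 30 °C; lower values mean less growth of the strain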
- ASSAY CONDITIONS: S. cerevisiae deletion strains, growth OD, locus YHR079C, strain IRE1
Out of some 5,500 compounds screened, about 2,000 (36%) were called active. Not shown: some 18% with an inconclusive outcome. Rule as the data show it: active = normalized growth mostly below about 0.91 (no sharp cut-off); inconclusive = no clear call, values can overlap the other calls; inactive = mostly above about 0.92. The list shows a part of the results.
Write down one outcome, taken from yes for active, no for inactive

Given Cc1ccccc1/C=C/c1c[nH]c2ccccc12 , state the outcome it received in this test.
no

Given COc1cc2c(cc1OC)C1(O)C(=O)c3ccc(O)c(C(=O)O)c3OC1CO2 (configuration not stated) , state the outcome it received in this test.
no

Given O=NN(CCCl)C(=O)NCCCl , state the outcome it received in this test.
yes

Given O=[N+]([O-])c1ccsc1Oc1cccc(C(F)(F)F)c1 , state the outcome it received in this test.
no

Given O=C(Nc1cc(Cl)ccc1O)c1ccccc1CSc1ccc(Cl)cc1 , state the outcome it received in this test.
no

Given CC1C/C=C/C=C/C=C/C=C/C(O[C@@H]2O[C@H](C)[C@@H](O)[C@H](N)[C@@H]2O)CC2OC(O)(CC(O)CC3OC3/C=C/C(=O)O1)CC(O)C2C(=O)O (some centres not stated) , state the outcome it received in this test.
no

Given N#Cc1ccc(Oc2sccc2[N+](=O)[O-])cc1 , state the outcome it received in this test.
no

Given CN(C)C(=O)Oc1ccc[n+](C)c1 , state the outcome it received in this test.
no

Given N#Cc1cccc(CSc2nc3ccc(C(F)(F)F)cc3[nH]2)c1 , state the outcome it received in this test.
no

Given CC1OC(O[C@H]2/C=C/C=C/C=C/C=C/C=C/C=C/C=C/[C@H](C)[C@@H](O)[C@@H](C)[C@H](C)OC(=O)CC(O)CC(O)CCC(O)C(O)CC(O)C[C@]3(O)C[C@H](O)C(C(=O)O)C(C2)O3)C(O)[C@H](N)C1O (some centres not stated) , state the outcome it received in this test.
yes

Given Cc1ncc([N+](=O)[O-])n1CC(O)CCl (configuration not stated) , state the outcome it received in this test.
no

Given COc1ccc2c(c1)OCC(Cc1ccc(OC)c(O)c1)C2=O (configuration not stated) , state the outcome it received in this test.
no

Given Cc1c[nH]c2ccccc12 , state the outcome it received in this test.
no

Given Cc1cc(/C=C/c2ccc3cc(N(C)C)ccc3[n+]2C)c(C)n1-c1ccccc1 , state the outcome it received in this test.
no

Given C=NC(C(=O)NC1C(=O)N2C1SC(C)(C)C2C(=O)O)c1ccccc1 (configuration not stated) , state the outcome it received in this test.
no

Given N/C(=N/O)c1ccc(Oc2ccc(C3SCCS3)cc2)c([N+](=O)[O-])c1 , state the outcome it received in this test.
no

Given CC1CCC(NC(=O)N(CCCl)N=O)CC1 (configuration not stated) , state the outcome it received in this test.
no

Given Clc1cc(Cl)cc(C=NCc2ccccc2)c1 , state the outcome it received in this test.
yes

Given Cc1ccc(NC(=S)C(C#N)C(=O)N2CCOCC2)c(C)c1 (configuration not stated) , state the outcome it received in this test.
no

Given CC(C)/C(O)=C1/C(=O)O[C@@H](c2ccoc2)[C@]2(C)C(O)[C@@H](O)[C@@]34OC5(C)OC67CC(C)(C(O)[C@]6(O)[C@@H](O)[C@]3(O5)C12)[C@H](CC(=O)O)[C@]74C (some centres not stated) , state the outcome it received in this test.
no

Given CCOC(=O)c1ccc(Oc2sccc2[N+](=O)[O-])cc1 , state the outcome it received in this test.
yes

Given COc1ccc2c(c1)OCC(Cc1ccc(O)c(OC)c1)C2=O (configuration not stated) , state the outcome it received in this test.
no
